Biological target: Human HIF-PHD2 (Homo sapiens)
Construct: FLAG-tagged full length PHD2 expressed in and purified from baculovirus-infected Sf9 cells; FLAG; made in house; host or cells: baculovirus-infected Sf9 cells
Sequence (Q9GZT9 whole entry): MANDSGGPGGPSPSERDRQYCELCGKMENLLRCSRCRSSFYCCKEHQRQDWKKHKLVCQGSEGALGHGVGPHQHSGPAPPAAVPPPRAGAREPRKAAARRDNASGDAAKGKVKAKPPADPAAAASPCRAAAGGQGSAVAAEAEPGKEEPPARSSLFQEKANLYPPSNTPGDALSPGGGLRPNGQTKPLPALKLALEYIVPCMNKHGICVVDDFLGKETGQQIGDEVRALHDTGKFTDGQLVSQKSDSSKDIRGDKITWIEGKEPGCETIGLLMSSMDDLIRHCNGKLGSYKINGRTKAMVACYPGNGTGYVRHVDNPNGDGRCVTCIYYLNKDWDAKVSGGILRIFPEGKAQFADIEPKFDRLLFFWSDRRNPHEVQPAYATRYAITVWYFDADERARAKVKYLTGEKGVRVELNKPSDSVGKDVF
Assay: Inhibition of the hydroxylation of a HIF peptide by PHD2 (time resolved fluorescence, 384-well)
Assay type: biochemical
Settings: FLAG-tagged full length PHD2; 0.2 μM 2-oxoglutarate, 0.5 μM HIF-1α peptide; 45 minutes at room temperature; read-out: Human HIF-PHD2 IC50
readout: IC50 (nM)

Examples from the recorded data:
CN1CC(c2ccc(C(F)(F)F)cc2)n2c(=O)c(C(=O)NCC(=O)O)c(O)c3ccc(F)c1c32 (centres unmarked) :: 55
O=C(O)CNC(=O)c1c(O)c2c(F)ccc3c2n(c1=O)CC(c1ccc(C(F)(F)F)cc1)N3 (centres unmarked) :: 10

[P] CS(=O)(=O)c1ccc2c3c1c(O)c(C(=O)NCC(=O)O)c(=O)n3CC(c1ccc(C(F)(F)F)cc1)O2 (centres unmarked)
[Q] O=C(O)CNC(=O)c1c(O)c2cccc3c2n(c1=O)CC(c1ccc(C(F)(F)F)cc1)N3 (centres unmarked) [Example 64]
[R] N#Cc1ccc2c(O)c(C(=O)NCC(=O)O)c(=O)n3c2c1CCC3
// query // smallest IC50 at index 0, largest at the end Provide your answer as the labels ordered per the instruction.
// result R, Q, P

[P] O=C(O)CNC(=O)c1c(O)c2cc(F)cc3c2n(c1=O)CC(c1ccc(C(F)(F)F)cc1)O3 (centres unmarked)
[Q] O=C(O)CNC(=O)c1c(O)c2c(Br)ccc3c2n(c1=O)C(Cc1ccc(C(F)(F)F)cc1)CO3 (centres unmarked)
[R] N#Cc1cc2c3c(c1)c(O)c(C(=O)NCC(=O)O)c(=O)n3CC(c1ccc(C(F)(F)F)cc1)[S+]2[O-] (centres unmarked)
[S] Cc1cc2c3c(c1)c(O)c(C(=O)NCC(=O)O)c(=O)n3C(Cc1ccc(C(F)(F)F)cc1)CO2 (centres unmarked)
[T] O=C(O)CNC(=O)c1c(O)c2cc(O)cc3c2n(c1=O)CC(c1ccc(C(F)(F)F)cc1)O3 (centres unmarked)
// query // smallest IC50 at index 0, largest at the end Provide your answer as the labels ordered per the instruction.
// result R, T, P, Q, S
(R: 0.839 nM, T: 2.7 nM, P: 5 nM, Q: 8.1 nM, S: 37 nM)
